Values from PubChem BioAssay (NCI)

- Tested on: A498 renal
- Test protocol: NCI tumour cell line growth inhibition, 48 h
Assay metric: TGI (µM)
Enter your answer as a number in µM; do not include the unit.

| Compound | Assay target | Unit | TGI |
| --- | --- | --- | --- |
| Cc1ccc(NC(=O)c2cccc(OP(=O)(Nc3ccc(C)cc3)Nc3ccc(C)cc3)c2)cc1 | A498 renal | µM | 62.3 |
| COc1ccc(OC(=O)N2C/C(=C\c3ccccc3)C(=O)/C(=C/c3ccccc3)C2)cc1 | A498 renal | µM | 10.6 |
| COc1cc(/C=C2\CCC/C(=C\c3cc(CN4CCCC4)c(O)c(OC)c3)C2=O)cc(CN2CCCC2)c1O | A498 renal | µM | 8.54 |

Let us examine a further case.
Q: So what TGI did COc1cc(/C=C2\CC3C4CCC5=CC(=O)CC[C@]5(C)C4CC[C@]3(C)C2=O)ccc1OCCN1CCCC1 (some centres undefined) get with A498 renal?
Result: 10.6

----------
- System: SF-295 CNS
- Test protocol: NCI tumour cell line growth inhibition, 48 h; in the data active = GI50 below about 0.43 µM; inactive = the rest
// classify into active, inactive

Here are 5 molecules together with their reported answers.
| Molecule | Assigned category |
| --- | --- |
| COc1ccc(N=Nc2ccc(O)c(=O)cc2)cc1 | inactive |
| Clc1nc(Cl)c2ncn(-c3ccccc3)c2n1 | inactive |
| Cn1c2c(c3ccccc31)CCN1C[C@@H]3CCCC[C@H]3C[C@@H]21 | inactive |
| COc1ccc(C2=C(c3ccccc3)C(=O)N3CCCC3C2)cc1 (stereo not given) | inactive |
| CC(C)c1cnc(-c2cc(Cl)ccc2F)cc1Nc1ccncc1C(=O)NC(CO)CO | inactive |

Q: What did the test return for `Cc1ccc2ncnc(N(C)C3CCCCC3)c2c1` ?
Result: inactive

Q: Same again, this time with `COC(=O)CN1Cc2cc(C)cc(c2O)CN(CC(=O)OC)Cc2cc(C)cc(c2O)CN(CC(=O)OC)Cc2cc(C)cc(c2O)CN(CC(=O)OC)Cc2cc(C)cc(c2O)C1`
Result: inactive

Q: Another molecule to check: CCN1C(=O)/C(=c2\sc3n(c2=O)C2C(NN=3)N(CC)C(=O)N2CC)c2ccccc21 (stereo not given)
Result: active

Q: # repeat for `Cc1cc(O)ccc1C1(c2ccc(O)cc2C)OC(=O)c2ccccc21`
Result: inactive

Q: How about `CC(=O)[O-].CC(=O)[O-].O=C([CH-]C(=O)c1ccccc1)c1ccccc1.[Nd+3].[OH3+]` ?
Result: inactive

----------
Measured TGI values are reported for all entries that follow.
- Test system: OVCAR-3 ovarian
- Test protocol: NCI tumour cell line growth inhibition, 48 h
# number only, unit µM dropped from output

Reference set (3 entries):
| Compound | Assay target | TGI (µM) |
| --- | --- | --- |
| COc1ccc(/C(C)=C2\CCCN(Cc3ccccc3)C2)cc1 | OVCAR-3 ovarian | 37.4 |
| CCN1C(=O)/C(=c2\sc3n(c2=O)C2C(NN=3)N(CC)C(=O)N2CC)c2ccccc21 (stereo not drawn) | OVCAR-3 ovarian | 3.32 |
| Cc1cc(O)ccc1C1(c2ccc(O)cc2C)OC(=O)c2ccccc21 | OVCAR-3 ovarian | 30.1 |

Consider the additional compound presented here.
Q: Request the reported TGI associated with `CC[C@]12C=CCN3CC[C@@]4(c5ccc(OC)cc5N(C)[C@H]4[C@@](O)(C(=O)OC)[C@@H]1OC(=O)CCC(=O)O[C@H]1CC[C@H]4[C@@H]5CCC6=CC(=O)CC[C@@H]6[C@H]5CC[C@]14C)[C@@H]32`
Result: 31.9
